- Tested on: A. fumigatus 210
- procedureSummary: Minimum inhibitory concentration, YAG medium
- Format: cell-based, Aspergillus fumigatus
- assayConditions: banded MIC grade
Please go through the items and note down their MIC grade, A. FUMIGATUS 210, YAG media.

Quick one: give measured MIC grade, A. FUMIGATUS 210, YAG media for CCCCCCCC1=CSC(N)=NN1
4 (4: <0.2 mg/L)

Quick one: give measured MIC grade, A. FUMIGATUS 210, YAG media for CCCOc1ccc(CCC2=NN=C(N)SC2)cc1
4 (4: <0.2 mg/L)

Quick one: give measured MIC grade, A. FUMIGATUS 210, YAG media for NC1=NN=C(CCOCCOc2ccccc2)CS1
4 (4: <0.2 mg/L)

Quick one: give measured MIC grade, A. FUMIGATUS 210, YAG media for CCc1ccc(OCCCCC2=NN=C(N)SC2)cc1
3 (3: 0.2-1 mg/L)

Quick one: give measured MIC grade, A. FUMIGATUS 210, YAG media for COCCCCCCCC1=NN=C(N)SC1
4 (4: <0.2 mg/L)

Quick one: give measured MIC grade, A. FUMIGATUS 210, YAG media for NC1=NN=C(CCCCOCCc2ccccc2)CS1
3 (3: 0.2-1 mg/L)

Quick one: give measured MIC grade, A. FUMIGATUS 210, YAG media for NC1=NN=C(CCCCOCc2ccc(Cl)c(F)c2)CS1
4 (4: <0.2 mg/L)

Quick one: give measured MIC grade, A. FUMIGATUS 210, YAG media for NC1=NNC(c2cccc3ccccc23)=CS1
1 (1: ≥5 mg/L)

Quick one: give measured MIC grade, A. FUMIGATUS 210, YAG media for CC(C)OCCC1=NN=C(N)SC1
1 (1: ≥5 mg/L)

Quick one: give measured MIC grade, A. FUMIGATUS 210, YAG media for COCCCCC1=NN=C(N)SC1
4 (4: <0.2 mg/L)

Quick one: give measured MIC grade, A. FUMIGATUS 210, YAG media for CCCCOCCC1=NN=C(N)SC1
4 (4: <0.2 mg/L)

Quick one: give measured MIC grade, A. FUMIGATUS 210, YAG media for NC1=NN=C(CCCCOCc2ccccc2C2CC2)CS1
2 (2: 1-5 mg/L)

Quick one: give measured MIC grade, A. FUMIGATUS 210, YAG media for NC1=NN=C(CCCCCN2C(=O)c3ccccc3C2=O)CS1
4 (4: <0.2 mg/L)

Quick one: give measured MIC grade, A. FUMIGATUS 210, YAG media for Cc1ccc(OCCC2=NN=C(N)SC2)cc1
4 (4: <0.2 mg/L)

Quick one: give measured MIC grade, A. FUMIGATUS 210, YAG media for NC1=NN=C(CCCCC(=O)Nc2ccccc2)CS1
3 (3: 0.2-1 mg/L)

Quick one: give measured MIC grade, A. FUMIGATUS 210, YAG media for CCCCc1cccc(COCCCCC2=NN=C(N)SC2)c1
1 (1: ≥5 mg/L)

Quick one: give measured MIC grade, A. FUMIGATUS 210, YAG media for NC1=NN=C(c2ccc(Cl)c(Cl)c2)CS1
1 (1: ≥5 mg/L)

Quick one: give measured MIC grade, A. FUMIGATUS 210, YAG media for CN(CCCCCC1=NN=C(N)SC1)c1ccccc1
2 (2: 1-5 mg/L)

Quick one: give measured MIC grade, A. FUMIGATUS 210, YAG media for NC1=NN=C(CCCCCC(=O)O)CS1
2 (2: 1-5 mg/L)

Quick one: give measured MIC grade, A. FUMIGATUS 210, YAG media for NC1=NN=C(CCCCOCc2ccccc2)CS1
4 (4: <0.2 mg/L)

Quick one: give measured MIC grade, A. FUMIGATUS 210, YAG media for NC1=NN=C(c2ccc3ccccc3c2)CS1
1 (1: ≥5 mg/L)

Quick one: give measured MIC grade, A. FUMIGATUS 210, YAG media for CCCCCCOCCC1=NN=C(N)SC1
4 (4: <0.2 mg/L)

Quick one: give measured MIC grade, A. FUMIGATUS 210, YAG media for NC1=NN=C(CC(=O)OCc2ccccc2)CS1
1 (1: ≥5 mg/L)

Quick one: give measured MIC grade, A. FUMIGATUS 210, YAG media for NC1=NN=C(CCCCOCc2ccc(Br)cc2)CS1
4 (4: <0.2 mg/L)

Quick one: give measured MIC grade, A. FUMIGATUS 210, YAG media for NC1=NN=C(CCOCc2ccc(-c3ccccc3)cc2)CS1
1 (1: ≥5 mg/L)

Quick one: give measured MIC grade, A. FUMIGATUS 210, YAG media for NC1=NN=C(CCCCc2ccccc2)CS1
4 (4: <0.2 mg/L)

Quick one: give measured MIC grade, A. FUMIGATUS 210, YAG media for NC1=NN=C(CCCCOCc2ccc(C(F)(F)F)cc2)CS1
4 (4: <0.2 mg/L)

Quick one: give measured MIC grade, A. FUMIGATUS 210, YAG media for COc1ccc(COCCCCC2=NN=C(N)SC2)cc1
2 (2: 1-5 mg/L)

Quick one: give measured MIC grade, A. FUMIGATUS 210, YAG media for CC(=O)OCCCCC1=NN=C(N)SC1
4 (4: <0.2 mg/L)

Quick one: give measured MIC grade, A. FUMIGATUS 210, YAG media for NC1=NN=C(CCCCOCc2ccccc2C(F)(F)F)CS1
2 (2: 1-5 mg/L)

Quick one: give measured MIC grade, A. FUMIGATUS 210, YAG media for COCCCCCC1=NN=C(N)SC1
4 (4: <0.2 mg/L)

Quick one: give measured MIC grade, A. FUMIGATUS 210, YAG media for NC1=NN=C(c2ccc(Cl)cc2)CS1
2 (2: 1-5 mg/L)

Quick one: give measured MIC grade, A. FUMIGATUS 210, YAG media for NC1=NN=C(CCCCOCCCc2ccc(F)cc2F)CS1
3 (3: 0.2-1 mg/L)

Quick one: give measured MIC grade, A. FUMIGATUS 210, YAG media for NC1=NN=C(CCCCc2cc3ccccc3o2)CS1
3 (3: 0.2-1 mg/L)

Quick one: give measured MIC grade, A. FUMIGATUS 210, YAG media for NC1=NN=C(CCCCOCc2ccc(Cl)cc2Cl)CS1
2 (2: 1-5 mg/L)

Quick one: give measured MIC grade, A. FUMIGATUS 210, YAG media for CCC(=O)OCC1=NN=C(N)SC1
3 (3: 0.2-1 mg/L)

Quick one: give measured MIC grade, A. FUMIGATUS 210, YAG media for NC1=NN=C(CCCCOCc2cccc(C3CC3)c2)CS1
3 (3: 0.2-1 mg/L)

Quick one: give measured MIC grade, A. FUMIGATUS 210, YAG media for CCCCOC(=O)c1ccc(C2=NN=C(N)SC2)cc1
3 (3: 0.2-1 mg/L)

Quick one: give measured MIC grade, A. FUMIGATUS 210, YAG media for CCCCc1ccc(COCCCCC2=NN=C(N)SC2)cc1
1 (1: ≥5 mg/L)

Quick one: give measured MIC grade, A. FUMIGATUS 210, YAG media for Cc1cc(C)cc(C2=NN=C(N)SC2)c1
2 (2: 1-5 mg/L)

Quick one: give measured MIC grade, A. FUMIGATUS 210, YAG media for NC1=NN=C(CCCCOCc2c(F)cccc2Cl)CS1
3 (3: 0.2-1 mg/L)

Quick one: give measured MIC grade, A. FUMIGATUS 210, YAG media for Cc1cccc(COCCCCC2=NN=C(N)SC2)c1
3 (3: 0.2-1 mg/L)

Quick one: give measured MIC grade, A. FUMIGATUS 210, YAG media for COc1cccc(C2=NN=C(N)SC2)c1
1 (1: ≥5 mg/L)

Quick one: give measured MIC grade, A. FUMIGATUS 210, YAG media for NC1=NN=C(CCCCOCc2cc(F)cc(F)c2)CS1
4 (4: <0.2 mg/L)

Quick one: give measured MIC grade, A. FUMIGATUS 210, YAG media for NC1=NN=C(c2ccccc2)CS1
3 (3: 0.2-1 mg/L)

Quick one: give measured MIC grade, A. FUMIGATUS 210, YAG media for NC1=NN=C(COc2ccccc2)CS1
4 (4: <0.2 mg/L)

Quick one: give measured MIC grade, A. FUMIGATUS 210, YAG media for CCOC(=O)CC1=NN=C(N)SC1
2 (2: 1-5 mg/L)

Quick one: give measured MIC grade, A. FUMIGATUS 210, YAG media for NC1=NN=C(CCCCCOc2ccccc2)CS1
4 (4: <0.2 mg/L)

Quick one: give measured MIC grade, A. FUMIGATUS 210, YAG media for CCCCC/C=C/C1=NN=C(N)SC1
2 (2: 1-5 mg/L)

Quick one: give measured MIC grade, A. FUMIGATUS 210, YAG media for NC1=NN=C(CCOc2ccccc2)CS1
4 (4: <0.2 mg/L)

Quick one: give measured MIC grade, A. FUMIGATUS 210, YAG media for NC1=NN=C(c2ccc(C3CCCCC3)cc2)CS1
1 (1: ≥5 mg/L)

Quick one: give measured MIC grade, A. FUMIGATUS 210, YAG media for N#Cc1ccc(COCCC2=NN=C(N)SC2)cc1
4 (4: <0.2 mg/L)

Quick one: give measured MIC grade, A. FUMIGATUS 210, YAG media for CCCCOC(=O)CC1=NN=C(N)SC1
3 (3: 0.2-1 mg/L)

Quick one: give measured MIC grade, A. FUMIGATUS 210, YAG media for NC1=NN=C(CCCCOCc2ccc(Cl)cc2)CS1
4 (4: <0.2 mg/L)

Quick one: give measured MIC grade, A. FUMIGATUS 210, YAG media for NC1=NN=C(CCCCOCc2ccc(Cl)cc2F)CS1
4 (4: <0.2 mg/L)

Quick one: give measured MIC grade, A. FUMIGATUS 210, YAG media for NC1=NN=C(CCCCCc2ccccn2)CS1
4 (4: <0.2 mg/L)
